// values below are reported T/C
Test system: Enterobacteria phage lambda
EXPERIMENT DESCRIPTION: Induction of lambda phage lytic activity in Escherichia coli W1709(lambda) assessed as ratio of plaques in treated culture to control at 0.8 ug/ml preincubated for 90 mins followed by heart infusion broth and glucose addition measured after 120 mins
Type: functional
MEASURE NAME: T/C

INSERT INTO measurements (compound, measure_name, result) VALUES
  ('COC1=C(C)C(=O)c2c(c(COC(N)=O)c3n2C[C@H]2[C@@H]3N2C)C1=O (some centres undefined)', 'T/C', 38.8),
  ('COC1=C(C)C(=O)c2c(c(COC(N)=O)c3n2CCC3O)C1=O (racemic)', 'T/C', 2.9),
  ('CN[C@@H]1Cn2c3c(c(COC(N)=O)c2[C@@H]1O)C(=O)C(OC)=C(C)C3=O (relative stereo)', 'T/C', 4.4),
  ('CN[C@@H]1Cn2c3c(c(COC(N)=O)c2[C@H]1O)C(=O)C(OC)=C(C)C3=O (relative stereo)', 'T/C', 2.4);

Source: ChEMBL document CHEMBL3271959
